# Assayed Target: FAAH (Homo sapiens, UniProt O00519)
# Sequence (O00519 1-579): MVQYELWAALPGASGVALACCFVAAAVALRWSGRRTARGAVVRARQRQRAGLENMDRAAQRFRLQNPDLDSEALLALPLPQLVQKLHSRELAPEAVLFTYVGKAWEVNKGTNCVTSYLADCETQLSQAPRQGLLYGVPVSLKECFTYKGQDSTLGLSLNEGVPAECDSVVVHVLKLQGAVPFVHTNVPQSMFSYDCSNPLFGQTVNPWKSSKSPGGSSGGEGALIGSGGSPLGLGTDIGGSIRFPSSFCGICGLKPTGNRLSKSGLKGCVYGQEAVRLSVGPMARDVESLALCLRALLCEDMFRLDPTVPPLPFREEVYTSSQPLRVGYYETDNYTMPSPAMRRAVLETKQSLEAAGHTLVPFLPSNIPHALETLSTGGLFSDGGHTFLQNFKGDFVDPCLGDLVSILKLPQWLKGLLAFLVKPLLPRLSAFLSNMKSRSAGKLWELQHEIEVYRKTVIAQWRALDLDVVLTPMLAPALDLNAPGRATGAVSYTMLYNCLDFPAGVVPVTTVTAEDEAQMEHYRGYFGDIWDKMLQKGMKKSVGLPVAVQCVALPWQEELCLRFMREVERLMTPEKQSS
# Experiment: Assay Method 1: FAAH assay, 3H-anandamide hydrolysis in homogenate of T84 cells or SK-N-MC cells transfected with human FAAH
Counter-ions that a name gives are not always drawn.
Lab note: cut-off is 100 nM. Strictly less in IC50 is yes (1). Exactly 100 nM or more is no (0).

Consider the worked cases shown below.
- Compound: "OC(CNc1cc(-c2ccc(OC(F)(F)F)cc2)ncn1)c1ccccc1Cl (centres unmarked) [Example 115]"
  Answer Label: "no (0)"
- Compound: "COc1ccc(C(O)CNc2cc(-c3ccc(C(F)(F)F)c(Cl)c3)ncn2)cc1OC (centres unmarked) [Example 202]"
  Answer Label: "no (0)"
- Compound: "COc1ccc(-c2cc(NCC(O)c3ccccc3)ncn2)cc1 (centres unmarked) [Example 147]"
  Answer Label: "no (0)"

Q) Please indicate whether the reported IC50 of Cc1ccc(-c2cc(NC[C@H](O)c3ccccc3)ncn2)cc1Cl [Example 39, trifluoroacetic acid salt] is strictly below 100 nM.
A) yes (1)

Q) Please indicate whether the reported IC50 of CC(C)Oc1ccc(-c2cc(NCC(O)c3ccccc3)ncn2)cc1 (centres unmarked) [Example 12] is strictly below 100 nM.
A) no (0)

Q) Please indicate whether the reported IC50 of Cc1n[nH]c2cc(-c3cc(NC[C@H](O)c4ccccc4)ncn3)ccc12 [Example 140, trifluoroacetic acid salt] is strictly below 100 nM.
A) no (0)

Q) Please indicate whether the reported IC50 of OC(CNc1cc(-c2ccc(OC(F)(F)F)cc2)ncn1)c1ccc(F)cc1 (centres unmarked) [Example 113] is strictly below 100 nM.
A) yes (1)

Q) Please indicate whether the reported IC50 of C[C@H](Nc1cc(-c2ccc(C(F)(F)F)c(Cl)c2)ncn1)[C@H](O)c1ccccc1 [Example 179] is strictly below 100 nM.
A) yes (1)

Origin of measurements: patent US8598202B2
